Details: 291.15 K; 101.33 kPa; Liquid
Measured quantity: mass density (kg/m3)

> print(dat)
    compound  unit.of.measure  observed.value
1  COCCOCCOC            kg/m3          945.75

I = ClCCCl
II = COCCOC
Which of the two gives a bigger number for mass density: I or II ? State your choice using its label. I
(I: 1255.8 kg/m3, II: 868.96 kg/m3)
